Test: self-splicing fitness, log relative to wild type (ln ratio); higher = more splicing; Tetrahymena group I intron in knt gene, E. coli kanamycin selection, DiMSum; sequences stand for … in CUCUCU…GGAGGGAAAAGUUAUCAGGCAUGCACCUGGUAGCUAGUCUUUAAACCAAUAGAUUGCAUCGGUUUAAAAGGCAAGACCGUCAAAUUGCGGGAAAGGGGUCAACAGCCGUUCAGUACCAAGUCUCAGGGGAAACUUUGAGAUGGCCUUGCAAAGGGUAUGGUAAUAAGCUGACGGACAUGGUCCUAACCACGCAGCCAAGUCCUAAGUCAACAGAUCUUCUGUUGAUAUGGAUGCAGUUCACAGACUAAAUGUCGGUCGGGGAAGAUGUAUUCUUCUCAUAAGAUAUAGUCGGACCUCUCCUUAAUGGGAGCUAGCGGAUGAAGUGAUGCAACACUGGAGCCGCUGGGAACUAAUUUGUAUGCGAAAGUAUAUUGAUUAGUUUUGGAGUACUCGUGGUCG;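 also: selection with 25 µg/mL kanamycin versus none on LB agar overnight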
Conditions: 30 °C
measured.quantity: self-splicing fitness (ln)
Lab note: jot down the number only; don't add units.

Request: Give the reported value of self-splicing fitness (ln) for this record: CUAAAGCAAUAUUACGGACG
Result: 0.255

Request: Give the reported value of self-splicing fitness (ln) for this record: UCGCAGCAAUAUUACGGCUA
Result: 0.198

Request: Give the reported value of self-splicing fitness (ln) for this record: CCUAAGCAAUAUUACGCACG
Result: -3.1

Request: Give the reported value of self-splicing fitness (ln) for this record: UUUCAGCAAUAUUACGACGA
Result: -0.00347

Request: Give the reported value of self-splicing fitness (ln) for this record: CGAAAGCAAUAUUACGGUCG
Result: -2.88

Request: Give the reported value of self-splicing fitness (ln) for this record: UGUUAGCAAUAUUACGCCGG
Result: -0.866

Request: Give the reported value of self-splicing fitness (ln) for this record: UCUGAGCAAUAUUACGCUCA
Result: -2.29

Request: Give the reported value of self-splicing fitness (ln) for this record: UCGAAGCAAUAUUACGAUCU
Result: -2.67

Request: Give the reported value of self-splicing fitness (ln) for this record: CAUAAGCAAUAUUACGCUGU
Result: -3.79

Request: Give the reported value of self-splicing fitness (ln) for this record: UCGCAGCAAUAUUACGGGGA
Result: -1.31

Request: Give the reported value of self-splicing fitness (ln) for this record: AAGCAGCAAUAUUACGUGAA
Result: -1.35

Request: Give the reported value of self-splicing fitness (ln) for this record: CUUAAGCAAUAUUACGUCAC
Result: -3.97

Request: Give the reported value of self-splicing fitness (ln) for this record: UCCGAGCAAUAUUACGCUAG
Result: -3.12

Request: Give the reported value of self-splicing fitness (ln) for this record: CGGUAGCAAUAUUACGACCG
Result: -2.88

Request: Give the reported value of self-splicing fitness (ln) for this record: CGGAAGCAAUAUUACGGGCU
Result: -3.27

Request: Give the reported value of self-splicing fitness (ln) for this record: UCCCAGCAAUAUUACGCGGG
Result: -2.66

Request: Give the reported value of self-splicing fitness (ln) for this record: AAGUAGCAAUAUUACGGUAA
Result: -1.12

Request: Give the reported value of self-splicing fitness (ln) for this record: AACGAGCAAUAUUACGCUAG
Result: -3.61

Request: Give the reported value of self-splicing fitness (ln) for this record: GUCUAGCAAUAUUACGGACC
Result: -3.95

Request: Give the reported value of self-splicing fitness (ln) for this record: UAUUAGCAAUAUUACGUCUC
Result: -2.7

Request: Give the reported value of self-splicing fitness (ln) for this record: GUAGAGCAAUAUUACGAGCA
Result: -0.443

Request: Give the reported value of self-splicing fitness (ln) for this record: GGGGAGCAAUAUUACGCUAG
Result: -2.63

Request: Give the reported value of self-splicing fitness (ln) for this record: UAGGAGCAAUAUUACGCGGA
Result: -3.57

Request: Give the reported value of self-splicing fitness (ln) for this record: UAUAAGCAAUAUUACGGCAC
Result: -1.53

Request: Give the reported value of self-splicing fitness (ln) for this record: AACAAGCAAUAUUACGAGGA
Result: -1.76

Request: Give the reported value of self-splicing fitness (ln) for this record: GCCAAGCAAUAUUACGGACA
Result: -1.12

Request: Give the reported value of self-splicing fitness (ln) for this record: GGUGAGCAAUAUUACGUAAG
Result: -3.05

Request: Give the reported value of self-splicing fitness (ln) for this record: AGCCAGCAAUAUUACGUAAU
Result: -1.71

Request: Give the reported value of self-splicing fitness (ln) for this record: CUCCAGCAAUAUUACGCCGA
Result: -2.27

Request: Give the reported value of self-splicing fitness (ln) for this record: GGAGAGCAAUAUUACGAGGG
Result: -1.99

Request: Give the reported value of self-splicing fitness (ln) for this record: CAGUAGCAAUAUUACGUGGC
Result: -2.97

Request: Give the reported value of self-splicing fitness (ln) for this record: AAAUAGCAAUAUUACGUAAG
Result: -1.37

Request: Give the reported value of self-splicing fitness (ln) for this record: ACGGAGCAAUAUUACGUCCU
Result: -1.85

Request: Give the reported value of self-splicing fitness (ln) for this record: GGUCAGCAAUAUUACGUAUC
Result: -0.892

Request: Give the reported value of self-splicing fitness (ln) for this record: GUUAAGCAAUAUUACGAGUA
Result: -2.5

Request: Give the reported value of self-splicing fitness (ln) for this record: ACGCAGCAAUAUUACGCACU
Result: -0.177

Request: Give the reported value of self-splicing fitness (ln) for this record: GCGAAGCAAUAUUACGCCUC
Result: -2.7

Request: Give the reported value of self-splicing fitness (ln) for this record: UGGUAGCAAUAUUACGGCAU
Result: -1.5

Request: Give the reported value of self-splicing fitness (ln) for this record: ACUAAGCAAUAUUACGGAUA
Result: -2.38

Request: Give the reported value of self-splicing fitness (ln) for this record: AUGUAGCAAUAUUACGAAAA
Result: -0.961

Request: Give the reported value of self-splicing fitness (ln) for this record: CACUAGCAAUAUUACGGACA
Result: -1.84

Request: Give the reported value of self-splicing fitness (ln) for this record: ACGCAGCAAUAUUACGCGCC
Result: -2.5

Request: Give the reported value of self-splicing fitness (ln) for this record: CGGUAGCAAUAUUACGUUAC
Result: -3.32

Request: Give the reported value of self-splicing fitness (ln) for this record: CGACAGCAAUAUUACGACCC
Result: -1.31

Request: Give the reported value of self-splicing fitness (ln) for this record: UCAGAGCAAUAUUACGACAG
Result: -2.53

Request: Give the reported value of self-splicing fitness (ln) for this record: GACCAGCAAUAUUACGAUUC
Result: -0.023

Request: Give the reported value of self-splicing fitness (ln) for this record: CAUCAGCAAUAUUACGUUCU
Result: -3.82

Request: Give the reported value of self-splicing fitness (ln) for this record: AUGGAGCAAUAUUACGGGAA
Result: -2.71

Request: Give the reported value of self-splicing fitness (ln) for this record: GUGCAGCAAUAUUACGACGC
Result: -0.518

Request: Give the reported value of self-splicing fitness (ln) for this record: ACUAAGCAAUAUUACGCUAU
Result: -1.88

Request: Give the reported value of self-splicing fitness (ln) for this record: ACCAAGCAAUAUUACGCGAU
Result: -2.1

Request: Give the reported value of self-splicing fitness (ln) for this record: AGACAGCAAUAUUACGUCAA
Result: -1.68

Request: Give the reported value of self-splicing fitness (ln) for this record: CAGUAGCAAUAUUACGACGC
Result: -3.07

Request: Give the reported value of self-splicing fitness (ln) for this record: CAACAGCAAUAUUACGCAGC
Result: -4.4

Request: Give the reported value of self-splicing fitness (ln) for this record: AACGAGCAAUAUUACGGUCA
Result: -2.05

Request: Give the reported value of self-splicing fitness (ln) for this record: CUUCAGCAAUAUUACGGCAC
Result: -4.13

Request: Give the reported value of self-splicing fitness (ln) for this record: GAGAAGCAAUAUUACGUUCC
Result: -3.57

Request: Give the reported value of self-splicing fitness (ln) for this record: GACAAGCAAUAUUACGUAAA
Result: -1.75

Request: Give the reported value of self-splicing fitness (ln) for this record: ACAAAGCAAUAUUACGGGCG
Result: -0.625

Request: Give the reported value of self-splicing fitness (ln) for this record: GAGAAGCAAUAUUACGCAAA
Result: -3.07

Request: Give the reported value of self-splicing fitness (ln) for this record: GGACAGCAAUAUUACGUAAC
Result: -0.0173

Request: Give the reported value of self-splicing fitness (ln) for this record: GGGCAGCAAUAUUACGGAUU
Result: -0.98

Request: Give the reported value of self-splicing fitness (ln) for this record: GGCUAGCAAUAUUACGCGCC
Result: -3.69

Request: Give the reported value of self-splicing fitness (ln) for this record: CGAGAGCAAUAUUACGGUAU
Result: -3.41

Request: Give the reported value of self-splicing fitness (ln) for this record: AAAAAGCAAUAUUACGAUGG
Result: -2.81

Request: Give the reported value of self-splicing fitness (ln) for this record: GCAUAGCAAUAUUACGGGCU
Result: -2.22

Request: Give the reported value of self-splicing fitness (ln) for this record: GUCUAGCAAUAUUACGGGCC
Result: -3.14

From: the supplement of paper PMC7877785
